# run-description: self-splicing fitness, log relative to wild type (ln ratio); higher = more splicing; Tetrahymena group I intron in knt gene, E. coli kanamycin selection, DiMSum; sequences stand for … in CUCUCU…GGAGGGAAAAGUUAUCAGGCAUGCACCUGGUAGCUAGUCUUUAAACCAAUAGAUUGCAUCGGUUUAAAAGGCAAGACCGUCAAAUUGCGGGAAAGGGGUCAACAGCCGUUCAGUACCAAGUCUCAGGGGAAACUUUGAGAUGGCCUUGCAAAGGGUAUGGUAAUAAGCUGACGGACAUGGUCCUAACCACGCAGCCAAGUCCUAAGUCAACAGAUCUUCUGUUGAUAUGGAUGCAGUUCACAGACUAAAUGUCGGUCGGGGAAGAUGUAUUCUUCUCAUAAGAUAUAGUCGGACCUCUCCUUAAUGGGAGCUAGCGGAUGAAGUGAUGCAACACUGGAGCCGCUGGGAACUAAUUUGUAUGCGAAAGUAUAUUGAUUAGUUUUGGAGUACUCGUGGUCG;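 further: selection with 25 µg/mL kanamycin versus none on LB agar overnight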
# test-parameters: 37 °C
Label rule, in plain words: self-splicing fitness (ln) of -2 and up is Satisfied, under -2 is Not satisfied.

INSERT INTO assay_data (sequence_text, label) VALUES
  ('UUUCAGCAAUAUUACGUGUU', 'Not satisfied'),
  ('CCAUAGCAAUAUUACGUUUU', 'Not satisfied');

Could you tell me if the measured self-splicing fitness (ln) of CGAGAGCAAUAUUACGUGUA reaches -2 or more?
Not satisfied

Could you tell me if the measured self-splicing fitness (ln) of UCCCAGCAAUAUUACGAGAU reaches -2 or more?
Not satisfied

Could you tell me if the measured self-splicing fitness (ln) of UUGAAGCAAUAUUACGCAUU reaches -2 or more?
Not satisfied

Could you tell me if the measured self-splicing fitness (ln) of UGGUAGCAAUAUUACGAACA reaches -2 or more?
Satisfied

---

# run-description: self-splicing fitness, log relative to wild type (ln ratio); higher = more splicing; Tetrahymena group I intron in knt gene, E. coli kanamycin selection, DiMSum; sequences stand for … in CUCUCU…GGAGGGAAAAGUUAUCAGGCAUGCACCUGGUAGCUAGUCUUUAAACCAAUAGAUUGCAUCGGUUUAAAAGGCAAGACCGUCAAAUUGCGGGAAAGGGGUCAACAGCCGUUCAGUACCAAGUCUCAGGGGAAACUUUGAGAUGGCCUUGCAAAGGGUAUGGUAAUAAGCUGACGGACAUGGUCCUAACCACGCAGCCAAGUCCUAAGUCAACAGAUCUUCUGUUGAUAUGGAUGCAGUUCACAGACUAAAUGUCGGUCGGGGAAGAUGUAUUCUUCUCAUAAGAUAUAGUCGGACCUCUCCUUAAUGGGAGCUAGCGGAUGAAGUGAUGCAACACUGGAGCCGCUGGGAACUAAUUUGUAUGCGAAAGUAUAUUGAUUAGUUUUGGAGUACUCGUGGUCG
# test-parameters: 37 °C
Give self-splicing fitness (ln) for every item shown.

Guide cases for self-splicing fitness (ln), answers given:
INSERT INTO results (sequence_text, observed) VALUES
  ('UAUAAGCAAUAUUACGCGAA', -0.98),
  ('UUUAAGCAAUAUUACGUUCU', -0.963),
  ('UGAAAGCAAUAUUACGGUGC', -2.61);

# batch size: 3; output self-splicing fitness (ln) per entry
1. UCACAGCAAUAUUACGGGAG
2. ACGGAGCAAUAUUACGGUGU
3. UAGCAGCAAUAUUACGUCUC

1. -3.24
2. -2.35
3. -0.915

# batch size: 4; output self-splicing fitness (ln) per entry
1. UUACAGCAAUAUUACGGAAG
2. UGUCAGCAAUAUUACGACGG
3. CGUCAGCAAUAUUACGAGCG
4. GUAUAGCAAUAUUACGGGUA

[-2.05, -0.98, -1.04, -1.28]

# batch size: 7; output self-splicing fitness (ln) per entry
1. UGGCAGCAAUAUUACGACCG
2. GAAUAGCAAUAUUACGGGGU
3. UUCUAGCAAUAUUACGGAUA
4. CCCAAGCAAUAUUACGUGUA
5. UUGCAGCAAUAUUACGAUAU
6. UUUAAGCAAUAUUACGCUGU
7. CUUAAGCAAUAUUACGUUGG

-0.245
-3.71
-0.551
-2.3
-1.78
-1.79
-2.4
